- System: Staphylococcus aureus
- measurement.protocol: Antibacterial activity against Staphylococcus aureus ATCC 25923 after 12 to 18 hrs by broth dilution method
- Type: functional
Catalogue of MIC values
Number first, unit second.

Please look up its MIC: CCCCCCCCCCn1n[n+](C)c2c1C(=O)c1ccccc1C2=O.[Cl-]
0.032 µg/mL

More entries:
Bench note: what MIC did CCCCCCCCCn1n[n+](C)c2c1C(=O)c1ccccc1C2=O.[Cl-] show?
0.032 µg/mL

Which MIC value belongs to CCCCCCCCn1n[n+](C)c2c1C(=O)c1ccccc1C2=O.[Cl-] ?
0.032 µg/mL

What value of MIC has been reported for the following molecule? CCCCCCCCCCCCn1n[n+](C)c2c1C(=O)c1ccccc1C2=O.[Cl-]
0.064 µg/mL

Fill in: MIC of CCCCCCCCn1n[n+](CC)c2c1C(=O)c1ccccc1C2=O.[Cl-] is ___
0.25 µg/mL

Which measured MIC value corresponds to CCCCCCCCCCCn1n[n+](C)c2c1C(=O)c1ccccc1C2=O.[Cl-] ?
0.25 µg/mL

Recorded MIC of CCCCCCCCCCCCCCCCn1n[n+](C)c2c1C(=O)c1ccccc1C2=O.[Cl-] , please.
0.25 µg/mL
